# System: COLO-679 (Melanoma)
# ASSAY EXPLANATION: Bliss excess, mean over the matrix (fraction); higher = more synergy
MEASUREMENT KIND: Bliss excess
# answer = number (no unit)

Some solved entries appear below for comparison.
molecule="CN(C)CCCOc1ccc(-c2ccc3ncc4c(c3c2)n(C2CCOCC2)c(=O)n4C)cn1 [AZD0156] + CCN(CCO)CCCOc1ccc2c(Nc3cc(CC(=O)Nc4cccc(F)c4)[nH]n3)ncnc2c1 [AZD2811] (first compound max 1 µM, 7x7, partner max 1 µM)" quantitative_result=-0.0093
molecule="COc1cccc(OCCCN)c1-c1cc(Nc2cnc(C#N)cn2)n[nH]1 [Prexasertib] + O=C(c1cc(Cc2n[nH]c(=O)c3ccccc23)ccc1F)N1CCN(C(=O)C2CC2)CC1 [Olaparib] (first compound max 1 µM, 7x7, partner max 10 µM)" quantitative_result=-0.0407
molecule="Cc1c2c(nn1C)CSCc1cc(n(C)n1)CSc1cc(c3ccccc3c1)OCCCc1c(C(=O)O)n(C)c3c-2c(Cl)ccc13 [AZD5991] + C=CCn1c(=O)c2cnc(Nc3ccc(N4CCN(C)CC4)cc3)nc2n1-c1cccc(C(C)(C)O)n1 [AZD1775] (first compound max 1 µM, partner max 1 µM)" quantitative_result=0.0628

Note: attention shifts to another entry.
Bliss excess for C[C@@H](Oc1cc(-c2cnn(C3CCNCC3)c2)cnc1N)c1c(Cl)ccc(F)c1Cl [Crizotinib] + Cn1cnc2c(F)c(Nc3ccc(Br)cc3Cl)c(C(=O)NOCCO)cc21 [Selumetinib] (first compound max 10 µM, 7x7, partner max 10 µM) ?
-0.0369

====

Documented Bliss excess across a set of compounds
# Test system: Ca-Ski (Cervical Carcinoma)
# ASSAY EXPLANATION: Bliss excess, mean over the matrix (fraction); higher = more synergy
# answer = number (no unit)

Bliss excess for CC1(C)CCC(CN2CCN(c3ccc(C(=O)NS(=O)(=O)c4ccc(NCC5CCOCC5)c([N+](=O)[O-])c4)c(Oc4cnc5[nH]ccc5c4)c3)CC2)=C(c2ccc(Cl)cc2)C1 [Venetoclax] + Cn1cnc2c(F)c(Nc3ccc(Br)cc3Cl)c(C(=O)NOCCO)cc21 [Selumetinib] (first compound max 1 µM, 7x7, partner max 3 µM) ?
-0.0038

Param item: CCN(CCO)CCCOc1ccc2c(Nc3cc(CC(=O)Nc4cccc(F)c4)[nH]n3)ncnc2c1 [AZD2811] + C[C@@H]1COCCN1C2=NC(=NC(=C2)C3(CC3)[S@](=N)(=O)C)C4=C5C=CNC5=NC=C4 [AZD6738] (first compound max 1 µM, 7x7, partner max 10 µM)
-0.0273

Param item: CN(CCO)CC[C@H](CSc1ccccc1)Nc1ccc(S(=O)(=O)NC(=O)c2ccc(N3CCC([C@@H](O)c4ccccc4-c4ccc(Cl)cc4)CC3)cc2)cc1S(=O)(=O)C(F)(F)F [AZD4320] + Nc1ccn([C@@H]2O[C@H](CO)[C@@H](O)C2(F)F)c(=O)n1 [Gemcitabine] (first compound max 1 µM, 7x7, partner max 0.3 µM)
0.0469

Param item: Cc1c2c(nn1C)CSCc1cc(n(C)n1)CSc1cc(c3ccccc3c1)OCCCc1c(C(=O)O)n(C)c3c-2c(Cl)ccc13 [AZD5991] + C[C@@H](Nc1cc(F)cc(F)c1)c1cc(C(=O)N(C)C)cc2c(=O)cc(N3CCOCC3)oc12 [AZD8186] (first compound max 1 µM, 7x7, partner max 3 µM)
0.0515

Param item: O=C(c1cc(Cc2n[nH]c(=O)c3ccccc23)ccc1F)N1CCN(C(=O)C2CC2)CC1 [Olaparib] + CN(CC[C@H](CSC1=CC=CC=C1)NC2=C(C=C(C=C2)S(=O)(=O)NC(=O)C3=CC=C(C=C3)N4CCC(CC4)[C@H](C5=CC=CC=C5C6=CC=C(C=C6)Cl)O)S(=O)(=O)C(F)(F)F)CCO [AZD4320] (first compound max 10 µM, 7x7, partner max 1 µM)
0.0083

Param item: Cc1nc(-c2cn3c(n2)-c2ccc(-c4cnn(C(C)(C)C(N)=O)c4)cc2OCC3)n(C(C)C)n1 [Taselisib] + O=C(Nc1ccc2[nH]nc(-c3ccncc3)c2c1)[C@@H]1CCN(CC(=O)N2CCN(c3ccc(-c4ncccn4)cc3)CC2)C1 [SCH772984] (first compound max 10 µM, 7x7, partner max 5 µM)
0.0833

====

Documented combination Emax across a set of compounds
# Tested on: KGN (Other Solid Carcinomas)
# ASSAY EXPLANATION: combination Emax (second highest fraction inhibited in the dose matrix, 72 h); higher = more inhibition; extreme values may be limits of the assay
# answer = number (no unit)

Some solved entries appear below for comparison.
compound="Cc1cc2ncnn2cc1Nc1ncc2c(n1)n(C1CCOCC1)c(=O)n2C [AZD7648] + C[C@@H]1COCCN1C2=NC(=NC(=C2)C3(CC3)[S@](=N)(=O)C)C4=C5C=CNC5=NC=C4 [AZD6738] (first compound max 10 µM, 7x7, partner max 10 µM)" measurement_kind="combination Emax" quantitative_result=0.873
compound="O=C(c1cc(Cc2n[nH]c(=O)c3ccccc23)ccc1F)N1CCN(C(=O)C2CC2)CC1 [Olaparib] + CN(CC[C@H](CSC1=CC=CC=C1)NC2=C(C=C(C=C2)S(=O)(=O)NC(=O)C3=CC=C(C=C3)N4CCC(CC4)[C@H](C5=CC=CC=C5C6=CC=C(C=C6)Cl)O)S(=O)(=O)C(F)(F)F)CCO [AZD4320] (first compound max 10 µM, 7x7, partner max 1 µM)" measurement_kind="combination Emax" quantitative_result=0.298
compound="C[C@@H](Oc1cc(-c2cnn(C3CCNCC3)c2)cnc1N)c1c(Cl)ccc(F)c1Cl [Crizotinib] + Cn1cnc2c(F)c(Nc3ccc(Br)cc3Cl)c(C(=O)NOCCO)cc21 [Selumetinib] (first compound max 10 µM, 7x7, partner max 10 µM)" measurement_kind="combination Emax" quantitative_result=0.816
compound="COc1cc2ncnc(Nc3ccc(F)c(Cl)c3)c2cc1OCCCN1CCOCC1 [Gefitinib] + CC(C)n1c(=O)n(C)c2cnc3cc(F)c(-c4ccc(OCCCN5CCCCC5)nc4)cc3c21 [AZD1390] (first compound max 10 µM, 7x7, partner max 0.3 µM)" measurement_kind="combination Emax" quantitative_result=0.368
compound="CN(C)CCCOc1ccc(-c2ccc3ncc4c(c3c2)n(C2CCOCC2)c(=O)n4C)cn1 [AZD0156] + O=C(c1cc(Cc2n[nH]c(=O)c3ccccc23)ccc1F)N1CCN(C(=O)C2CC2)CC1 [Olaparib] (first compound max 3 µM, partner max 3 µM)" measurement_kind="combination Emax" quantitative_result=0.62

Note: attention shifts to another entry.
combination Emax for C=CCn1c(=O)c2cnc(Nc3ccc(N4CCN(C)CC4)cc3)nc2n1-c1cccc(C(C)(C)O)n1 [AZD1775] + CCc1c2c(nc3ccc(O)cc13)-c1cc3c(c(=O)n1C2)COC(=O)[C@]3(O)CC [SN-38] (first compound max 1 µM, partner max 0.3 µM) ?
0.833

====

# Test system: ME-180 (Cervical Carcinoma)
# ASSAY EXPLANATION: combination Emax (second highest fraction inhibited in the dose matrix, 72 h); higher = more inhibition; extreme values may be limits of the assay
Documented combination Emax across a set of molecules
# answer = number (no unit)

Form: Entry = O=C(c1cc(Cc2n[nH]c(=O)c3ccccc23)ccc1F)N1CCN(C(=O)C2CC2)CC1 [Olaparib] + CN(CC[C@H](CSC1=CC=CC=C1)NC2=C(C=C(C=C2)S(=O)(=O)NC(=O)C3=CC=C(C=C3)N4CCC(CC4)[C@H](C5=CC=CC=C5C6=CC=C(C=C6)Cl)O)S(=O)(=O)C(F)(F)F)CCO [AZD4320] (first compound max 10 µM, 7x7, partner max 1 µM) | System = ME-180 (Cervical Carcinoma) | combination Emax = ____
0.18

Param item: CC1(C)CCC(CN2CCN(c3ccc(C(=O)NS(=O)(=O)c4ccc(NCC5CCOCC5)c([N+](=O)[O-])c4)c(Oc4cnc5[nH]ccc5c4)c3)CC2)=C(c2ccc(Cl)cc2)C1 [Venetoclax] + Cc1cc2ncnn2cc1Nc1ncc2c(n1)n(C1CCOCC1)c(=O)n2C [AZD7648] (first compound max 1 µM, 7x7, partner max 10 µM)
0.268

Param item: C[C@@H](Nc1cc(F)cc(F)c1)c1cc(C(=O)N(C)C)cc2c(=O)cc(N3CCOCC3)oc12 [AZD8186] + C1CN(CCC1(C(=O)N[C@@H](CCO)C2=CC=C(C=C2)Cl)N)C3=NC=NC4=C3C=CN4 [AZD5363] (first compound max 10 µM, 7x7, partner max 10 µM)
0.579

Param item: N#Cc1cnc(Nc2cc(NC[C@H]3CNCCO3)c(C(F)(F)F)cn2)cn1 [SRA737] + Nc1ccn([C@@H]2O[C@H](CO)[C@@H](O)C2(F)F)c(=O)n1 [Gemcitabine] (first compound max 10 µM, 7x7, partner max 0.3 µM)
0.9

Param item: CN(C)CCCOc1ccc(-c2ccc3ncc4c(c3c2)n(C2CCOCC2)c(=O)n4C)cn1 [AZD0156] + C[C@@H]1COCCN1C2=NC(=NC(=C2)C3(CC3)[S@](=N)(=O)C)C4=C5C=CNC5=NC=C4 [AZD6738] (first compound max 1 µM, 7x7, partner max 10 µM)
0.343
